- EXPERIMENTAL TARGET: D(2) dopamine receptor (Rattus norvegicus, UniProt P61169)
- Sequence (P61169 whole entry): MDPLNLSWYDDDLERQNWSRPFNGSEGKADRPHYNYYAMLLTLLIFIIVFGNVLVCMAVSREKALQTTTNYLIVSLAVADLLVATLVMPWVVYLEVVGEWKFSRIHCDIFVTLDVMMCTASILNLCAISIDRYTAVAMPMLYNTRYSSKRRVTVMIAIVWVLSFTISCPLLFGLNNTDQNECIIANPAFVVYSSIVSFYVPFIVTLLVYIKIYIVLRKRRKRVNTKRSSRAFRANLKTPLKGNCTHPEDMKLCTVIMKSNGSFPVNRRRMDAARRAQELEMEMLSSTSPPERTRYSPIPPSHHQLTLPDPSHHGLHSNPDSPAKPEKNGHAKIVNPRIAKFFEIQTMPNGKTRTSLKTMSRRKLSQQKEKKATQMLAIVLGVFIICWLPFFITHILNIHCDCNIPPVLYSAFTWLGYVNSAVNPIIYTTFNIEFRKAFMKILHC
- TEST METHOD NOTES: Activity at rat dopamine D2L receptor expressed in HEK293 cells assessed as inhibition of forskolin-stimulated cAMP production
pEC50: −log10 of the molar value.

>  <MOLECULE>
Oc1cc2c(cc1O)C1c3ccccc3CNC1CO2 (racemic)

>  <pEC50>
< 5.00

$$$$
>  <MOLECULE>
CCCN1Cc2ccccc2C2c3cc(O)c(O)cc3OCC21 (racemic)

>  <pEC50>
5.80

$$$$
>  <MOLECULE>
Oc1cc2c(cc1O)[C@@H]1c3ccccc3CN[C@H]1CO2 (single isomer, unassigned)

>  <pEC50>
< 5.00

$$$$
>  <MOLECULE>
Oc1cc2c(cc1O)[C@H]1c3ccccc3CN[C@@H]1CO2 (single isomer, unassigned)

>  <pEC50>
< 5.00

$$$$
